Target: mGluR4 (UniProt Q14833)
Test: mGluR4 potentiation assay: increase in response to an EC20 concentration of agonist (species not given)
Conditions: EC50 for potentiation of mGluR4; table does not state human or rat
Description: The disclosed compounds and compositions can be evaluated for their ability to act as a potentiator of metabotropic glutamate receptor activity, in particular mGluR4 activity, by any suitable known methodology known in the art. […] The cells were loaded with either a Ca2+-sensitive fluorescent dye or the thallium responsive dye and the plates were washed and placed into a suitable kinetic plate reader. […]
pEC50: −log10 of the molar value.
Decide by pEC50: equal to or exceeding 6 means Condition met, less means Condition not met.

query: Please indicate if the recorded pEC50 for Cc1cc(Cn2ncc3cc(Nc4n[nH]c5nccnc45)ccc32)no1 [Example 104] meets or exceeds 6.
result: Condition met

query: Say whether CC(C)n1ncc2cc(Nc3n[nH]c4cccnc34)cc(Cl)c21 [Example 58] shows pEC50 of 6 or more.
result: Condition not met

query: Confirm if pEC50 reported for the molecule Cn1ncc2c(Nc3n[nH]c4cccnc34)cccc21 [Example 33] is 6 or above.
result: Condition not met

query: # bool: pEC50 of Cc1c2cc(Nc3n[nH]c4cccnc34)ccc2nn1C1CCCC1 [Example 68] >= 6
result: Condition not met

query: Confirm if pEC50 reported for the molecule COc1ccc2[nH]nc(Nc3ccc4c(C5CC5)nn(C)c4c3)c2c1 [Example 47] is 6 or above.
result: Condition not met

query: API: above_or_equal(metric=pEC50, cutoff=6) for item Cn1nc(Oc2ccc(C#N)cn2)c2c(Cl)cc(Nc3n[nH]c4cccnc34)cc21 [Example 207]
result: Condition met

---

Biological target: mGluR4 (UniProt Q14833)
Assay: mGluR4 potentiation assay: increase in response to an EC20 concentration of agonist (species not given)
Conditions: EC50 for potentiation of mGluR4; table does not state human or rat
MEASUREMENT KIND: EC50 (nM)
Write it as a number; the unit nM goes unstated.

query: Tell me EC50 reported for Cn1nc(C(F)(F)F)c2cc(Nc3n[nH]c4cccnc34)ccc21
result: 119

query: Query EC50 for [2H]C([2H])(C)Oc1nn(C)c2cc(Nc3n[nH]c4cccnc34)ccc12
result: 356

query: Quick one: give measured EC50 for Cc1nn(CC2CCC2)c2ncc(Nc3n[nH]c4cccnc34)cc12
result: 110

query: Please supply the value of reported EC50 for the item Cc1nn(CC(C)(C)C)c2ccc(Nc3n[nH]c4cccnc34)cc12
result: 295

query: # return recorded EC50 for entry Cc1nn(C2CCC2)c2ccc(Nc3n[nH]c4cccnc34)cc12
result: 374

query: Please supply the value of reported EC50 for the item Cn1nc(C2CC2)c2ccc(Nc3n[nH]c4cc(F)ccc34)cc21
result: 4220

query: Specify EC50 for Cc1nn(CC(F)(F)F)c2ccc(Nc3n[nH]c4cccnc34)cc12 and stop.
result: 96

query: Return EC50 for the following compound: Clc1cc(Nc2n[nH]c3cccnc23)cc2cn(CC3CCC3)nc12
result: 117

query: Specify measured EC50 for Cc1nn(C2CCOCC2)c2ncc(Nc3n[nH]c4cccnc34)cc12 .
result: 3700

query: Return reported EC50. Input compound: Cc1nn(CC(C)(C)C)c2ncc(Nc3n[nH]c4cccnc34)cc12
result: 160

query: Identify the reported EC50 for the following entry. Cc1cc(Cn2nc(Cl)c3cc(Nc4n[nH]c5cccnc45)ccc32)on1
result: 310

query: Retrieve EC50 measured for Cn1nc(-c2ccncc2)c2ccc(Nc3n[nH]c4cccnc34)cc21 and print it.
result: 871

query: # return recorded EC50 for input Cn1nc(C2CC2)c2ccc(Nc3n[nH]c4ccccc34)cc21
result: 128

query: Respond only with EC50 recorded for Cn1ncc2c(Cl)cc(Nc3n[nH]c4ccccc34)cc21
result: 64

query: Complete the entry with EC50 for Cn1nc(C(=O)NCCCS(C)(=O)=O)c2ccc(Nc3n[nH]c4cccnc34)cc21
result: 4610

query: Answer with the recorded EC50 for the compound listed here: Cc1n[nH]c2ccc(Nc3n[nH]c4cccnc34)cc12
result: 813

query: For the compound Cc1nn(CC2CC(c3ncccc3F)=NO2)c2ccc(Nc3n[nH]c4cccnc34)cc12 (stereo not shown) , give its reported EC50.
result: 135

query: Identify measured EC50 associated with Cc1nn(CCC(C)Cl)c2ccc(Nc3n[nH]c4cccnc34)cc12 (stereo not shown)
result: 77

query: Annotate the compound CCCCn1nc(Cl)c2cc(Nc3n[nH]c4cccnc34)ccc21 with its measured EC50.
result: 2430

query: Identify measured EC50 associated with Cc1nn(CC2CCC2)c2ccc(Nc3n[nH]c4cccnc34)cc12
result: 47

query: Look up and report measured EC50 for this entry: C=C(c1nn(C)c2cc(Nc3n[nH]c4cccnc34)ccc12)C(F)(F)F
result: 147

query: In one line, give reported EC50 of the entry CC(C)n1ncc2cc(Nc3n[nH]c4nccnc34)cc(Cl)c21 .
result: 790

query: Please give the documented EC50 of Cn1nc(C2(C)CC2)c2ccc(Nc3n[nH]c4cccnc34)cc21
result: 68

query: Identify measured EC50 associated with Cc1cc(Cn2nc(C)c3cc(Nc4n[nH]c5cccnc45)ccc32)no1
result: 51

query: # return recorded EC50 for entry Cn1nc(C(=O)NC2CC(F)C2)c2ccc(Nc3n[nH]c4cccnc34)cc21 (stereo not shown)
result: 794

query: Retrieve EC50 measured for C=C(C)Cn1nc(C)c2cc(Nc3n[nH]c4cccnc34)ccc21 and print it.
result: 49

query: For the compound CC(C)n1cc2cc(Nc3n[nH]c4cccnc34)cc(Cl)c2n1 , give its measured EC50 value.
result: 914

query: State, in one line, measured EC50 of Cc1cc(COc2nn(C)c3cc(Nc4n[nH]c5cccnc45)ccc23)on1
result: 104

query: Item CCCOc1nn(C)c2cc(Nc3n[nH]c4cccnc34)ccc12 : provide EC50
result: 171

query: Give reported EC50 value for Cc1nn(CCC(C)C)c2ncc(Nc3n[nH]c4cccnc34)cc12
result: 170

query: Indicate the recorded EC50 value for this compound: Cc1nn(C)c2ccc(Nc3n[nH]c4cccnc34)cc12
result: 345

query: Supply EC50 value. Item: COCCn1nc(C)c2cc(Nc3n[nH]c4cccnc34)cnc21
result: 2330
